SYSTEM_UNDER_TEST: HLA-B*46:01
MEASUREMENT_PROTOCOL: IEDB peptide-MHC binding, purified MHC/direct/fluorescence; filed as Kd, often an IC50 or EC50 that approximates it; bounds were set here for any values at or beyond the usual limits of such assays
TEST_PARAMETERS: source organism: Camelpox virus M-96
OBSERVED_PROPERTY: Kd

Input line: Give the measured Kd of NTDAFSREY .
Output line: ≥ 20 µM

###

SYSTEM_UNDER_TEST: HLA-B*39:01
MEASUREMENT_PROTOCOL: IEDB peptide-MHC binding, purified MHC/competitive/fluorescence; filed as Kd, often an IC50 or EC50 that approximates it; bounds were set here for any values at or beyond the usual limits of such assays
TEST_PARAMETERS: source organism: Entamoeba histolytica HM-1:IMSS
OBSERVED_PROPERTY: Kd

Input line: Give the measured Kd of KTRMEDYYL .
Output line: ≥ 20 µM

###

SYSTEM_UNDER_TEST: HLA-B*15:01
MEASUREMENT_PROTOCOL: IEDB peptide-MHC binding, purified MHC/direct/fluorescence; filed as Kd, often an IC50 or EC50 that approximates it; bounds were set here for any values at or beyond the usual limits of such assays
TEST_PARAMETERS: source organism: Campylobacter jejuni
OBSERVED_PROPERTY: Kd

Input line: Under HLA-B*15:01: Kd value of SFGAGTLAK ?
Output line: ≥ 20 µM

###

SYSTEM_UNDER_TEST: HLA-A*24:03
MEASUREMENT_PROTOCOL: IEDB peptide-MHC binding, purified MHC/direct/fluorescence; filed as Kd, often an IC50 or EC50 that approximates it; bounds were set here for any values at or beyond the usual limits of such assays
TEST_PARAMETERS: source organism: Vibrio parahaemolyticus
OBSERVED_PROPERTY: Kd (nM)
Report as a plain number; the unit nM is understood.

Input line: Give the measured Kd of RFTPVKHEL .
Output line: 5

###

SYSTEM_UNDER_TEST: HLA-B*07:02
MEASUREMENT_PROTOCOL: IEDB peptide-MHC binding, purified MHC/competitive/fluorescence; filed as Kd, often an IC50 or EC50 that approximates it; bounds were set here for any values at or beyond the usual limits of such assays
TEST_PARAMETERS: source organism: Pseudomonas aeruginosa UCBPP-PA14
pKd: −log10 of the molar value.
OBSERVED_PROPERTY: pKd

Input line: Give the measured pKd of FLDDASNSA .
Output line: ≤ 4.70

###

SYSTEM_UNDER_TEST: HLA-A*01:01
MEASUREMENT_PROTOCOL: IEDB peptide-MHC binding, purified MHC/direct/fluorescence; filed as Kd, often an IC50 or EC50 that approximates it; bounds were set here for any values at or beyond the usual limits of such assays
TEST_PARAMETERS: source organism: West Nile virus
OBSERVED_PROPERTY: pKd
As a rule, pKd stands for the negative log10 of the concentration, concentration in M.

Input line: Give the measured pKd of YQTDSGCWY .
Output line: 5.22

###

SYSTEM_UNDER_TEST: HLA-A*33:01
MEASUREMENT_PROTOCOL: IEDB peptide-MHC binding, purified MHC/competitive/radioactivity; filed as Kd, often an IC50 or EC50 that approximates it; bounds were set here for any values at or beyond the usual limits of such assays
TEST_PARAMETERS: source organism: Dengue virus 2 Jamaica/1409/1983
OBSERVED_PROPERTY: Kd (nM)
Report as a plain number; the unit nM is understood.

Below: 3 sequences and their reported Kd.
DIISRRDQR; 105
CVTQVLMMR; 350
DYMPSMKRFR; 1.97

Shifting focus to the sequence that follows.
Input line: Under HLA-A*33:01: Kd value of FFLIVLLIPE ?
Output line: 327

###

Overview of reported Kd across a group of sequences:
SYSTEM_UNDER_TEST: HLA-B*51:01
MEASUREMENT_PROTOCOL: IEDB peptide-MHC binding, purified MHC/competitive/radioactivity; filed as Kd, often an IC50 or EC50 that approximates it; bounds were set here for any values at or beyond the usual limits of such assays
TEST_PARAMETERS: source organism: Dengue virus 4 Philippines/H241/1956
Report as a plain number; the unit µM is understood.

LSIPPTAGIL; 9.47

Shifting focus to the sequence that follows.
Input line: Under HLA-B*51:01: Kd value of LTFIRSTMPL ?
Output line: 1.52

###

SYSTEM_UNDER_TEST: HLA-A*26:03
MEASUREMENT_PROTOCOL: IEDB peptide-MHC binding, purified MHC/direct/fluorescence; filed as Kd, often an IC50 or EC50 that approximates it; bounds were set here for any values at or beyond the usual limits of such assays
TEST_PARAMETERS: source organism: Listeria monocytogenes serotype 4b str. H7858
OBSERVED_PROPERTY: pKd
As a rule, pKd stands for the negative log10 of the concentration, concentration in M.

Input line: Give the measured pKd of FTYAPAGMY .
Output line: 6.94

###

SYSTEM_UNDER_TEST: HLA-A*26:01
MEASUREMENT_PROTOCOL: IEDB peptide-MHC binding, purified MHC/direct/fluorescence; filed as Kd, often an IC50 or EC50 that approximates it; bounds were set here for any values at or beyond the usual limits of such assays
TEST_PARAMETERS: source organism: Comamonas sediminis
OBSERVED_PROPERTY: Kd

Input line: Give the measured Kd of KSLGIDQIW .
Output line: ≥ 20 µM

###

SYSTEM_UNDER_TEST: HLA-A*02:01
MEASUREMENT_PROTOCOL: IEDB peptide-MHC binding, purified MHC/direct/fluorescence; filed as Kd, often an IC50 or EC50 that approximates it; bounds were set here for any values at or beyond the usual limits of such assays
TEST_PARAMETERS: source organism: Rickettsia conorii
pKd: −log10 of the molar value.
OBSERVED_PROPERTY: pKd

Input line: Under HLA-A*02:01: pKd value of RTGDIGCFK ?
Output line: ≤ 4.70

###

SYSTEM_UNDER_TEST: HLA-B*44:02
MEASUREMENT_PROTOCOL: IEDB peptide-MHC binding, purified MHC/direct/fluorescence; filed as Kd, often an IC50 or EC50 that approximates it; bounds were set here for any values at or beyond the usual limits of such assays
TEST_PARAMETERS: source organism: Camelpox virus M-96
OBSERVED_PROPERTY: Kd

Input line: Under HLA-B*44:02: Kd value of LEYGANYFL ?
Output line: ≥ 20 µM

###

SYSTEM_UNDER_TEST: HLA-A*02:01
MEASUREMENT_PROTOCOL: IEDB peptide-MHC binding, purified MHC/direct/fluorescence; filed as Kd, often an IC50 or EC50 that approximates it; bounds were set here for any values at or beyond the usual limits of such assays
TEST_PARAMETERS: source organism: Influenza A virus (A/Saudi Arabia/7971/2000(H1N1))
OBSERVED_PROPERTY: Kd (nM)
Report as a plain number; the unit nM is understood.

Input line: Give the measured Kd of LLFEVEQEI .
Output line: 15.7

###

SYSTEM_UNDER_TEST: HLA-B*15:01
MEASUREMENT_PROTOCOL: IEDB peptide-MHC binding, purified MHC/competitive/fluorescence; filed as Kd, often an IC50 or EC50 that approximates it; bounds were set here for any values at or beyond the usual limits of such assays
TEST_PARAMETERS: source organism: Homo sapiens
pKd: −log10 of the molar value.
OBSERVED_PROPERTY: pKd

Input line: Under HLA-B*15:01: pKd value of FTGEYLLRL ?
Output line: ≤ 4.70

###

SYSTEM_UNDER_TEST: HLA-A*02:50
MEASUREMENT_PROTOCOL: IEDB peptide-MHC binding, purified MHC/competitive/fluorescence; filed as Kd, often an IC50 or EC50 that approximates it; bounds were set here for any values at or beyond the usual limits of such assays
TEST_PARAMETERS: source organism: Yersinia pestis Nepal516
pKd: −log10 of the molar value.
OBSERVED_PROPERTY: pKd

Input line: Give the measured pKd of FLRFGDFKL .
Output line: ≥ 10.00

###

SYSTEM_UNDER_TEST: HLA-A*69:01
MEASUREMENT_PROTOCOL: IEDB peptide-MHC binding, purified MHC/competitive/fluorescence; filed as Kd, often an IC50 or EC50 that approximates it; bounds were set here for any values at or beyond the usual limits of such assays
TEST_PARAMETERS: source organism: Human immunodeficiency virus 1
OBSERVED_PROPERTY: Kd

Input line: Give the measured Kd of NTVATLYCV .
Output line: ≤ 1 nM

###

SYSTEM_UNDER_TEST: HLA-B*73:01
MEASUREMENT_PROTOCOL: IEDB peptide-MHC binding, purified MHC/direct/fluorescence; filed as Kd, often an IC50 or EC50 that approximates it; bounds were set here for any values at or beyond the usual limits of such assays
TEST_PARAMETERS: source organism: Yersinia enterocolitica
OBSERVED_PROPERTY: Kd

Input line: Under HLA-B*73:01: Kd value of YRLVSAVEK ?
Output line: ≥ 20 µM

Value source: the Immune Epitope Database (IEDB)
